// reported pKd per item
- SYSTEM_NAME: T1, monomeric His-tagged hFcRn (human, UniProt P55899 24-297; P61769 21-119, limits assumed)
- T1 construct: also called human FcRn; not shown: His tag
- TEST_PROTOCOL: SPR Biacore 3000, antibody amine-coupled to CM5, His-tagged hFcRn analyte, pH 6.0, 25 C, 1:1 Langmuir
Schema: pKd number; meaning minus log10 of the concentration expressed in molar units.

Recorded results for 3 binders are shown here.
{"columns": ["BINDER", "ENDPOINT_RESULT"],
 "data": [
  ["G15_C3/Vκ3 (antibody, V domains shown, Bivalent IgG4 with S241P, human kappa; also called SYNT002-3; G15_C3 VH1) VH: EVQLVESGGGLVKPGGSLKLSCAASGFTFSDYGMHWVRQAPGKGLEWVAYISSGSSTIYYADTVKGRFTISRDNAKNTLYLQMNSLRAEDTAMYYCARGESTTTVGDYWGQGTSVTVSS VL: DIVMTQSPDSLSASVGDRVTITCKASQSVSNDVAWYQQKPGQPPKLLIYYASNRYTGVPDRFSGSGYGTDFTLTISSLQAEDVAVYFCQQDYSSLTFGQGTKLEIK", 9.15],
  ["G50_C10/Vκ3 (antibody, V domains shown, Bivalent IgG4 with S241P, human kappa; also called SYNT002-16; G50_C10/Vκ3 (HEK)) VH: EVQLVESGGGLVKPGGSLKLSCAASGFTFSDYGMHWVRQAPGKGLEWVAYISSGSSTIYYADTVKGRFTISRDNAKNTLYLQMNSLRAEDTAMYYCARLESTTAVGDYWGQGTSVTVSS VL: DIVMTQSPDSLSASVGDRVTITCKASQSVSNDVAWYQQKPGQPPKLLIYYASNRYTGVPDRFSGSGYGTDFTLTISSLQAEDVAVYFCQQDYSSLTFGQGTKLEIK", 9.40],
  ["G47_B10/Vκ3 (antibody, V domains shown, Bivalent IgG4 with S241P, human kappa; also called SYNT002-8; G47_B10VH1_Vκ3) VH: EVQLVESGGGLVKPGGSLKLSCAASGFTFSDYGMHWVRQAPGKGLEWVAYISSGSSTIYYADTVKGRFTISRDNAKNTLYLQMNSLRAEDTAMYYCARAESTTTVGDYWGQGTSVTVSS VL: DIVMTQSPDSLSASVGDRVTITCKASQSVSNDVAWYQQKPGQPPKLLIYYASNRYTGVPDRFSGSGYGTDFTLTISSLQAEDVAVYFCQQDYSSLTFGQGTKLEIK", 9.22]
]}

# evaluate next
Entry G49_H9.3/Vκ3 (antibody, V domains shown, Bivalent IgG4 with S241P, human kappa; also called SYNT002-21; G49_H9.3 VH1) VH: EVQLVESGGGLVKPGGSLKLSCAASGFTFSDYGMHWVRQAPGKGLEWVAYISSGSSTIYYADTVKGRFTISRDNAKNTLYLQMNSLRAEDTAMYYCARFDSLSTVGDYWGQGTSVTVSS VL: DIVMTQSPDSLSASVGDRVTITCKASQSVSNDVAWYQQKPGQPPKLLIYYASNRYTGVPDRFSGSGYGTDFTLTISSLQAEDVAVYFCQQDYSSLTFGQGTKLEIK has what pKd? 8.77

The measured values listed here are drawn from patent US20190135915A1.
